Item-by-item account of Blood uptake
Test system: S180-bearing mice
method: Bio-distribution in tumor-bearing mice
Assay type: in vivo
testSettings: S180-bearing mice, tail vein, 30 min
Protocol: The labeled solution (0.1 mL, 74 KBq) is injected into mice through the tail vein, and the injection time is recorded. Then the mice were killed by cervical dislocation at different time phases (30 minutes, 60 minutes, and 120 minutes), five mice for each time phase, and the organs of interest such as heart, liver, lung, kidney, spleen, stomach, muscle, blood and tumor are taken out after dissection, and measured with a γ-counter for the radioactive count of each organ. […]
Please respond with the number in % ID/g and leave the unit unwritten.

Check out these entries, answers already filled in.
| molecule | targetUnderTest | measurementUnit | Blood uptake |
| --- | --- | --- | --- |
| O=C(CCCCC[N+]#[C][99Tc-5]([C]#[N+]CCCCCC(=O)NC1C(O)OC(CO)C(O)C1O)([C]#[N+]CCCCCC(=O)NC1C(O)OC(CO)C(O)C1O)([C]#[N+]CCCCCC(=O)NC1C(O)OC(CO)C(O)C1O)([C]#[N+]CCCCCC(=O)NC1C(O)OC(CO)C(O)C1O)[C]#[N+]CCCCCC(=O)NC1C(O)OC(CO)C(O)C1O)NC1C(O)OC(CO)C(O)C1O (stereo not shown) [[^99mTc-(CN5DG)6]^+] | S180-bearing mice | % ID/g | 1.58 |
| O=C(CCC[N+]#[C][99Tc-5]([C]#[N+]CCCC(=O)NC1C(O)OC(CO)C(O)C1O)([C]#[N+]CCCC(=O)NC1C(O)OC(CO)C(O)C1O)([C]#[N+]CCCC(=O)NC1C(O)OC(CO)C(O)C1O)([C]#[N+]CCCC(=O)NC1C(O)OC(CO)C(O)C1O)[C]#[N+]CCCC(=O)NC1C(O)OC(CO)C(O)C1O)NC1C(O)OC(CO)C(O)C1O (stereo not shown) [[^99mTc-(CN3DG)6]^+] | S180-bearing mice | % ID/g | 0.78 |
| O=C(CC[N+]#[C][99Tc-5]([C]#[N+]CCC(=O)NC1C(O)OC(CO)C(O)C1O)([C]#[N+]CCC(=O)NC1C(O)OC(CO)C(O)C1O)([C]#[N+]CCC(=O)NC1C(O)OC(CO)C(O)C1O)([C]#[N+]CCC(=O)NC1C(O)OC(CO)C(O)C1O)[C]#[N+]CCC(=O)NC1C(O)OC(CO)C(O)C1O)NC1C(O)OC(CO)C(O)C1O (stereo not shown) [[^99mTc-(CN2DG)6]^+] | S180-bearing mice | % ID/g | 0.94 |

Now, please, on to the next molecule.
INPUT: Dear colleague, I am looking for the recorded Blood uptake of the following molecule: O=C(CCCC[N+]#[C][99Tc-5]([C]#[N+]CCCCC(=O)NC1C(O)OC(CO)C(O)C1O)([C]#[N+]CCCCC(=O)NC1C(O)OC(CO)C(O)C1O)([C]#[N+]CCCCC(=O)NC1C(O)OC(CO)C(O)C1O)([C]#[N+]CCCCC(=O)NC1C(O)OC(CO)C(O)C1O)[C]#[N+]CCCCC(=O)NC1C(O)OC(CO)C(O)C1O)NC1C(O)OC(CO)C(O)C1O (stereo not shown) [[^99mTc-(CN4DG)6]^+]
OUTPUT: 1.80

====

System: S180-bearing mice
method: Bio-distribution in tumor-bearing mice
Format: in vivo
testSettings: S180-bearing mice, tail vein, 120 min
compounds and their reported Blood uptake
Give just the numeric value; % ID/g need not be written.

| compound | Blood uptake / % ID/g |
| --- | --- |
| O=C(CCCCC[N+]#[C][99Tc-5]([C]#[N+]CCCCCC(=O)NC1C(O)OC(CO)C(O)C1O)([C]#[N+]CCCCCC(=O)NC1C(O)OC(CO)C(O)C1O)([C]#[N+]CCCCCC(=O)NC1C(O)OC(CO)C(O)C1O)([C]#[N+]CCCCCC(=O)NC1C(O)OC(CO)C(O)C1O)[C]#[N+]CCCCCC(=O)NC1C(O)OC(CO)C(O)C1O)NC1C(O)OC(CO)C(O)C1O (stereo not shown) [[^99mTc-(CN5DG)6]^+] | 0.16 |

INPUT: Entry under review: O=C(CCCC[N+]#[C][99Tc-5]([C]#[N+]CCCCC(=O)NC1C(O)OC(CO)C(O)C1O)([C]#[N+]CCCCC(=O)NC1C(O)OC(CO)C(O)C1O)([C]#[N+]CCCCC(=O)NC1C(O)OC(CO)C(O)C1O)([C]#[N+]CCCCC(=O)NC1C(O)OC(CO)C(O)C1O)[C]#[N+]CCCCC(=O)NC1C(O)OC(CO)C(O)C1O)NC1C(O)OC(CO)C(O)C1O (stereo not shown) [[^99mTc-(CN4DG)6]^+] . Reported Blood uptake?
OUTPUT: 0.03

INPUT: Recorded Blood uptake for O=C(CCC[N+]#[C][99Tc-5]([C]#[N+]CCCC(=O)NC1C(O)OC(CO)C(O)C1O)([C]#[N+]CCCC(=O)NC1C(O)OC(CO)C(O)C1O)([C]#[N+]CCCC(=O)NC1C(O)OC(CO)C(O)C1O)([C]#[N+]CCCC(=O)NC1C(O)OC(CO)C(O)C1O)[C]#[N+]CCCC(=O)NC1C(O)OC(CO)C(O)C1O)NC1C(O)OC(CO)C(O)C1O (stereo not shown) [[^99mTc-(CN3DG)6]^+] , please?
OUTPUT: 0.04

INPUT: What does the data say about its Blood uptake? Entry: O=C(CC[N+]#[C][99Tc-5]([C]#[N+]CCC(=O)NC1C(O)OC(CO)C(O)C1O)([C]#[N+]CCC(=O)NC1C(O)OC(CO)C(O)C1O)([C]#[N+]CCC(=O)NC1C(O)OC(CO)C(O)C1O)([C]#[N+]CCC(=O)NC1C(O)OC(CO)C(O)C1O)[C]#[N+]CCC(=O)NC1C(O)OC(CO)C(O)C1O)NC1C(O)OC(CO)C(O)C1O (stereo not shown) [[^99mTc-(CN2DG)6]^+]
OUTPUT: 0.01
